Attribution: patent US20260258051A1

# Tested on: HCC1954 cells
# Procedure text: Inhibitory effect on HCC1954 cell proliferation
# Assay type: cell-based
# Test context: Homo sapiens; HCC1954, 72 h incubation, Cell Counting-Lite 2.0
Readout type: IC50 (nM)

CC[C@@]1(O)C(=O)OCc2c1cc1n(c2=O)Cc2c-1nc1cc(F)c(Cl)c3c1c2[C@@H](NC(=O)C[C@H](C)O)CC3    171

###

# Procedure text: Permeability test in MDCK cell model
# Type: in vitro ADME
# Test context: dog, pH 7.4, concentration 2.00 μM, 120 minutes, B to A, read-out: Papp B to A
# Method: The MDCK cell model was used to evaluate the permeability of the compounds, the LC-MS/MS method was used to determine the concentration of the substance to be tested, and the apparent permeability coefficient (Papp) and efflux ratio were calculated [Efflux ratio=Papp(B→A)/Papp(A→B)]. […] Excel 2013 was used to calculate Papp values and Papp ratio of B side→A side to A side→B side, and the recovery rates of each Control Compound and the compound to be tested were calculated. […]
Output 1.0 for Papp B→A at 120 min, 2 μM not less than 50 nm/s; output 0.0 otherwise.

CC[C@@]1(O)C(=O)OCc2c1cc1n(c2=O)Cc2c-1nc1cc(F)c(C)c3c1c2[C@@H](NC(=O)CO)CC3 [Control Compound 3, reference compound]    0.0
CC[C@@]1(O)C(=O)OCc2c1cc1n(c2=O)Cc2c-1nc1cc(F)c(C)cc1c2CN [Control Compound 1, reference compound]    0.0
CC[C@@]1(O)C(=O)OCc2c1cc1n(c2=O)Cc2c-1nc1cc(F)c(Cl)cc1c2CN    0.0
CC[C@@]1(O)C(=O)OCc2c1cc1n(c2=O)Cc2c-1nc1cc(F)c(C)c3c1c2[C@@H](NC(=O)C[C@H](C)O)CC3 [Control Compound 4, reference compound]    1.0
CC[C@@]1(O)C(=O)OCc2c1cc1n(c2=O)Cc2c-1nc1cc(F)c(C)cc1c2CNC(=O)CO [Control Compound 2, reference compound]    0.0
